Reference for the values: patent US20250163162A1

Target: T1, IL10Rα/IL2Rγ receptor (human, UniProt Q13651 22-578; P31785 23-369)
T1 sequence (looked up) 1: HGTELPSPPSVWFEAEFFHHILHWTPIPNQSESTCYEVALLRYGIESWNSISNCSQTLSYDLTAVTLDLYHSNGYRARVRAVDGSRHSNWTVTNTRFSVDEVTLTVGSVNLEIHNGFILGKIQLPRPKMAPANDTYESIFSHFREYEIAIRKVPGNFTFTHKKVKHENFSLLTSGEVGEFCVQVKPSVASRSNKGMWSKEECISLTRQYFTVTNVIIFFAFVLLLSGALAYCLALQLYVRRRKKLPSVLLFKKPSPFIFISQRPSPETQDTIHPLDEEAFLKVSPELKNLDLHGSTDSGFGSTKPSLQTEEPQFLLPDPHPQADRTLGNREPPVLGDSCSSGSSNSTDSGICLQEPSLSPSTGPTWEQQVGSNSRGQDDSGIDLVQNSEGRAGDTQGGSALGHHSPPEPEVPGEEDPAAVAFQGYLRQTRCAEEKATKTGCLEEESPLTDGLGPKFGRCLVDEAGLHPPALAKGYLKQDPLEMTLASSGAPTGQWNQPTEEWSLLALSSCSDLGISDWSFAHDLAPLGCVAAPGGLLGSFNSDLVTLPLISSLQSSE
T1 sequence (looked up) 2: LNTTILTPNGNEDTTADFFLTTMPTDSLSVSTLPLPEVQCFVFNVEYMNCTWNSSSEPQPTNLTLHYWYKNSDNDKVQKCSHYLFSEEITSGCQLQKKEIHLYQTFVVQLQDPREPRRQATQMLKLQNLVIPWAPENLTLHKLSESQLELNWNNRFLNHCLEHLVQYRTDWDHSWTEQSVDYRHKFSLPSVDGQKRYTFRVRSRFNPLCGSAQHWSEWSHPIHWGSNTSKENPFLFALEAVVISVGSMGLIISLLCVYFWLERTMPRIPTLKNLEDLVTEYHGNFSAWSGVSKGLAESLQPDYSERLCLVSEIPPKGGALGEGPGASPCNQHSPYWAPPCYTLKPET
Test: cell-based or functional assay
Quantity: pSTAT3 MFI, CD8 T cells, 0.01 nM (unstimulated 1446) (MFI)
Answers are plain numbers, in MFI.

Look at this binder and give its reported pSTAT3 MFI, CD8 T cells, 0.01 nM (unstimulated 1446). DR395(DR229-DR239) (bispecific antibody) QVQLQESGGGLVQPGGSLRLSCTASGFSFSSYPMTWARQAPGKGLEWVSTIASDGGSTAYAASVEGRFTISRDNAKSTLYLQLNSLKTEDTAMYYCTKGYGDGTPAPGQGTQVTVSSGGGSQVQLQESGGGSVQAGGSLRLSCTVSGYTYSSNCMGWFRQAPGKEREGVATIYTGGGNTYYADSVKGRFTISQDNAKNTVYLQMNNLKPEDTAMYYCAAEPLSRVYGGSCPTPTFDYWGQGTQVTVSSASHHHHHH
1400
